# Experiment notes: qHTS RealTime-Glo MT Cell Viability Assay in HEK293 cells - 40 hour (AID 1224874); also: % is scaled to controls: 0 for no effect and ±100 for the full control effect; nearly all actives have a fitted effect of over 50% in size
# Measurement context: RealTime-Glo luminescence; hits give low values
Inconclusive results are not listed.
Parameter: max response. Scope: all listed entries.
Your answer should be a plain number; it is taken to be in %.

Some compounds with known max response results, for comparison:
C[C@@H](C1=C(CCN(C)C)Cc2ccccc21)c1ccccn1; -16.8
C=CCCCCCC; 9.99
O=C(Cl)c1ccc([N+](=O)[O-])cc1; 7.36
Cc1c(Cn2ccnc2)c2ccccc2n1CCC(=O)O; 4.63
O=c1c2ccccc2nnn1CCl; 10.3

Looking up C#CCOC(=O)[C@@H](C)Oc1ccc(Oc2ncc(Cl)cc2F)cc1 , I see its max response listed as -16.3

Looking up CC1CCc2cc(F)cc3c(=O)c(C(=O)O)cn1c23 (configuration not stated) , I see its max response listed as 7.68

Looking up NC[C@H]1O[C@H](O[C@H]2[C@H](O)[C@@H](O[C@H]3O[C@H](CO)[C@@H](O)[C@H](N)[C@H]3O)[C@H](N)C[C@@H]2N)[C@H](O)[C@@H](O)[C@@H]1O , I see its max response listed as 12.1

Looking up CCCCCCCCCCCCCCCBr , I see its max response listed as -1.7

Looking up CCCCC(CC)(CO)CO , I see its max response listed as -0.853

Looking up COc1ccccc1OC(=O)Oc1ccccc1OC , I see its max response listed as 1.1

Looking up CCOc1cc(OCC)c(C(=O)CCC(=O)O)cc1OCC , I see its max response listed as 3.3

###

Parameter: activity change, positive = activation. Scope: all listed entries.
# Experiment notes: qHTS assay to identify small molecule agonists of the estrogen related receptor (ERR) signaling pathway from Tox21 library (AID 1224849); also: % is scaled to controls: 0 for no effect and ±100 for the full control effect; nearly all actives have a fitted effect of over 15% in size
# Measurement context: ERR reporter cell line, ONE-Glo luciferase, 18 h; at 92.4 µM (top of the series) unless noted
Calls of active or inactive are those of the source. Calls follow the shape of the full dose curve.

Some molecules with known activity change, positive = activation results, for comparison:
O=[N+]([O-])c1cccc(Cl)c1Cl; 2.5% (inactive)
NC[C@H]1O[C@H](O[C@H]2[C@H](O)[C@@H](O[C@H]3O[C@H](CO)[C@@H](O)[C@H](N)[C@H]3O)[C@H](N)C[C@@H]2N)[C@H](O)[C@@H](O)[C@@H]1O; 8.77% [at 8.39 µM] (inactive)
COc1cc(C(C)(C)C)c(O)c(C(C)(C)C)c1; -4.21% (inactive)

Looking up CC(CN)CCCN (stereo not given) , I see its activity change, positive = activation listed as -0.964% (inactive)

Looking up Cc1ccc(C(=O)C(C)CN2CCCCC2)cc1 (stereo not given) , I see its activity change, positive = activation listed as 4.97% [at 42.5 µM] (inactive)

###

# Experiment notes: qHTS RealTime-Glo MT Cell Viability Assay in HEK293 cells - 8 hour (AID 1224887); also: top concentration of the series differs between compounds; % is scaled to controls: 0 for no effect and ±100 for the full control effect; nearly all actives have a fitted effect of over 50% in size
# Measurement context: RealTime-Glo luminescence; series mostly up to 76.8 µM
# Source text: U.S. Tox21 Program National Center for Advancing Translational Sciences [NCATS] NIH Chemical Genomics Center [NCGC] U.S. Environmental Protection Agency [EPA] National Institutes of Environmental Health Sciences [NIEHS] National Toxicology Program [NTP] U.S. Food and Drug Administration [FDA] Tox21 Assay Overview: Measure of cell viability is critical in the cell-base assay. Analysis of cell viability is necessary for the characterization of cell responses to cytotoxic drugs and environmental stress. […]
Records with an inconclusive call do not appear. Active and inactive are the calls of the source. The call rests on the fitted dose curve; in most records, active means well fitted cell-killing curve with a large enough effect in the repeat runs; inconclusive means weak or mixed curves, or effect the other way; inactive means flat fitted curve, though single readings scatter.
Endpoint name: Potency

Some compounds with known Potency results, for comparison:
Nc1nc(CC(=O)O)cs1; inactive
CC(CN)CCCN (stereo not given); inactive
CCCCCCCC/C=C\CCCCCCCC(N)=O; inactive
O=C(CC(=O)c1ccccc1)c1ccccc1; inactive

Looking up C[C@@H](C1=C(CCN(C)C)Cc2ccccc21)c1ccccn1 , I see its Potency listed as inactive

Looking up C=C(C)C(=O)OCCN(C)C , I see its Potency listed as inactive

Looking up CCCCOC(=O)/C=C\C(=O)OCCCC , I see its Potency listed as inactive

Looking up CC(=O)NCCCS(=O)(=O)O , I see its Potency listed as inactive

Looking up CCCC(C)C , I see its Potency listed as inactive

Looking up C=CCCCCCC , I see its Potency listed as inactive

Looking up COCCO , I see its Potency listed as inactive

Looking up Oc1ccc(C(O)CNCCCCCCNCC(O)c2ccc(O)c(O)c2)cc1O (stereo not given) , I see its Potency listed as inactive

###

# Test target: Glucocorticoid receptor (Homo sapiens) (UniProt P04150)
# Sequence (P04150 whole entry, looked up): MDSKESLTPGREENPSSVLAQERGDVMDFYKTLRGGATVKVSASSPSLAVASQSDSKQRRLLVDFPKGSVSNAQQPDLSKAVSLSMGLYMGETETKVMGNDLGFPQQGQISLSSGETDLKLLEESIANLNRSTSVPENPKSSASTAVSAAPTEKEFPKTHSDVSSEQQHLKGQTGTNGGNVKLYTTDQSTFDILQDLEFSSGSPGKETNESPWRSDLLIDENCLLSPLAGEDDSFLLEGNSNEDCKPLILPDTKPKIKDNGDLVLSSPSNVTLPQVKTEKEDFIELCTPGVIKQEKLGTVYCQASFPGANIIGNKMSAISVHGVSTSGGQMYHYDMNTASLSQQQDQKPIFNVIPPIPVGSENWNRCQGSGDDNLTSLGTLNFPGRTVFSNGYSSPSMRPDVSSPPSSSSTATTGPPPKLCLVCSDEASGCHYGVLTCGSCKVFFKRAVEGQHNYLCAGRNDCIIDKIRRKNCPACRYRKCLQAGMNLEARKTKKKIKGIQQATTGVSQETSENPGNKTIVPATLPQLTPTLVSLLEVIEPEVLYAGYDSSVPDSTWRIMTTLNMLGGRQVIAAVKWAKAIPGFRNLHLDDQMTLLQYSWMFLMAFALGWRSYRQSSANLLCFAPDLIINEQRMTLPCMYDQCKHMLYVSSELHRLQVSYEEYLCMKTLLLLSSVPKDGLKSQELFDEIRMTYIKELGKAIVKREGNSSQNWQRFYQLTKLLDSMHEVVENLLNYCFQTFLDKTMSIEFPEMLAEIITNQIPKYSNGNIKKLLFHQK
# Experiment notes: qHTS assay to identify small molecule agonists of the glucocorticoid receptor (GR) signaling pathway (AID 720691); as to activation: % is scaled to controls: 0 for no effect and ±100 for the full control effect
# Measurement context: GR-bla HeLa, beta-lactamase reporter ratio, 18 h; series mostly up to 62.4 µM
Activity calls are given as the source filed them. The call rests on the fitted dose curve; in most records, active means well fitted activation curve with a large enough effect in the signal ratio in the repeat runs (not every such curve was filed as active); inconclusive means weak or mixed curves, or effect the other way; inactive means no such curve, though single readings can be large or run the other way; the % refers to the signal ratio.
Answer with one of the outcomes active, inactive

Worked set:
Nc1nc(CC(=O)O)cs1; inactive
NC(N)=NN=C(/C=C/c1ccc([N+](=O)[O-])o1)/C=C/c1ccc([N+](=O)[O-])o1; active
CC(C)c1ccc2c(C(C)C)cc(C(C)C)c(S(=O)(=O)O)c2c1; inactive
CC(C)=CCCC(C)CC=O (stereo not drawn); inactive
CC(C)CCCC(C)CCO (stereo not drawn); inactive
CC(=O)[C@@]1(O)CC[C@H]2[C@@H]3C[C@H](C)C4=CC(=O)CC[C@]4(C)[C@H]3CC[C@@]21C; active

IN: Hi team, can someone confirm the assay call for CCCCOc1ccc(CC(=O)NO)cc1 ?
OUT: inactive

IN: Hi team, can someone confirm the assay call for CN(C)CC/C=C1\c2ccccc2COc2ccccc21 ?
OUT: inactive

IN: Hi team, can someone confirm the assay call for CN(C(=O)CCCOc1ccc2[nH]c(=O)ccc2c1)C1CCCCC1 ?
OUT: inactive

IN: Hi team, can someone confirm the assay call for Cc1cc(NC(=O)C(=O)O)cc(C)c1Oc1ccc(O)c2c1CCC2 ?
OUT: inactive

IN: Hi team, can someone confirm the assay call for C[Si](C)O[Si](C)(C)O[Si](C)(C)O[Si](C)C ?
OUT: inactive

IN: Hi team, can someone confirm the assay call for CC(C)(C)c1cc(O)c(C(C)(C)C)cc1O ?
OUT: inactive

IN: Hi team, can someone confirm the assay call for CCCCCCCCC(CO)CCCCCC (stereo not drawn) ?
OUT: inactive

IN: Hi team, can someone confirm the assay call for O=C(CC(=O)c1ccccc1)c1ccccc1 ?
OUT: inactive

IN: Hi team, can someone confirm the assay call for CC(C)(C)c1cc(CO)cc(C(C)(C)C)c1O ?
OUT: inactive

IN: Hi team, can someone confirm the assay call for O=C(O)Cc1sc(-c2ccccc2)nc1-c1ccc(Cl)cc1 ?
OUT: inactive

IN: Hi team, can someone confirm the assay call for Cc1cccc(Oc2ccccc2)c1 ?
OUT: inactive

IN: Hi team, can someone confirm the assay call for O=[N+]([O-])c1cc[n+]([O-])cc1 ?
OUT: inactive

IN: Hi team, can someone confirm the assay call for CC(Cc1cccc(C(F)(F)F)c1)NCCOC(=O)c1ccccc1 (stereo not drawn) ?
OUT: inactive

###

# Experiment notes: qHTS assay to test for compound auto fluorescence at 460 nm (blue) in HepG2 cells (AID 720687); also: % is scaled to controls: 0 for no effect and ±100 for the full control effect
# Measurement context: autofluorescence 405/460 nm, 1 h; series mostly up to 91.3 µM
The source made the active and inactive calls. Calls follow the shape of the dose curve; as a rule, active = well fitted curve in the direction sought with a large enough effect in the repeat runs; inconclusive = weak or mixed curves; inactive = flat fitted curve, though single readings scatter.
Endpoint name: fluorescence, % of fluorescent control

CCCCOC(O)CC (stereo not drawn); inactive
CC(=O)c1ccc2c(c1)[C@H](NC(=O)c1ccc(F)cc1)[C@@H](O)C(C)(C)O2; inactive
SC1CCCC1; inactive

###

# Experiment notes: qHTS assay to identify small molecule antagonists of the glucocorticoid receptor (GR) signaling pathway - cell viability counter screen (AID 720693); also: % is scaled to controls: 0 for no effect and ±100 for the full control effect; nearly all actives have a fitted effect of over 55% in size
# Measurement context: GR-bla HeLa viability, CellTiter-Glo luminescence, 18 h, with 5 nM dexamethasone present; series mostly up to 58.5 µM
Inconclusive results are not listed. Calls of active or inactive are those of the source. Calls follow the shape of the dose curve; as a rule, active = well fitted cell-killing curve with a large enough effect in the repeat runs; inconclusive = weak or mixed curves, or effect the other way; inactive = no such curve, though single readings can be large or run the other way.
Answer with one of the outcomes active, inactive

Worked set:
N#Cc1c(F)cccc1F; inactive
CCOc1ccc2[nH]cc(C(=O)NCc3ccccc3)c(=O)c2n1; inactive
CC(C)(C)C1CCCCC1O (stereo unspecified); inactive
CN1CCC(OC(c2ccccc2)c2ccccc2)CC1; inactive

IN: Hi team, can someone confirm the assay call for CCCCCCCCCO ?
OUT: inactive

###

# Experiment notes: qHTS assay for identifying genotoxic compounds that show differential cytotoxicity against isogenic chicken DT40 cell lines with known DNA damage response pathways - wild type cell line (AID 743012); also: nearly all actives have a fitted effect of over 60% in size
# Measurement context: DT40 wild type chicken cells viability, CellTiter-Glo, 40 h; series mostly up to 68.4 µM
Records with an inconclusive call do not appear. Calls of active or inactive are those of the source. The call rests on the fitted dose curve; in most records, active means well fitted cell-killing curve with a large enough effect in the repeat runs; inconclusive means weak or mixed curves, or effect the other way; inactive means no such curve, though single readings can be large or run the other way.
Answer with one of the outcomes active, inactive

C=CCCCCCC; inactive

IN: Hi team, can someone confirm the assay call for CC(=O)O[C@@H]1C(=O)O[C@@H]2[C@H]1OC(=O)[C@@H]2OC(C)=O ?
OUT: active

IN: Hi team, can someone confirm the assay call for Cc1cc(NC(=O)C(=O)O)cc(C)c1Oc1ccc(O)c2c1CCC2 ?
OUT: inactive

IN: Hi team, can someone confirm the assay call for COCCCCCCCCOCCC[Si](C)(O[Si](C)(C)C)O[Si](C)(C)C ?
OUT: active

IN: Hi team, can someone confirm the assay call for C1CCC2OC2C1 (configuration not stated) ?
OUT: inactive

IN: Hi team, can someone confirm the assay call for Cc1ccc(O)c([C@H](CCN(C(C)C)C(C)C)c2ccccc2)c1 ?
OUT: active

Provenance of the data: PubChem BioAssay (Tox21)
